Origin of measurements: patent US6348461B1

Quantity kind: melting point

Take a look at these entries with their results.
Cc1cc2nc(C(=O)O)c(=O)[nH]c2cc1[N+](=O)[O-] ... 239 to 242 °C
O=C(NCc1ccn(-c2cc3nc(C(=O)O)c(=O)[nH]c3cc2C(F)(F)F)c1)Nc1cccc(C(=O)O)c1 ... 300 °C
O=C(O)c1nc2cc(N3CCN(c4ccc(F)cc4)CC3)c([N+](=O)[O-])cc2[nH]c1=O ... 235.5 to 237.5 °C
O=C(O)c1nc2cc(-n3ccnc3)c([N+](=O)[O-])cc2[nH]c1=O ... > 300 °C
O=C(Nc1ccc(Br)cc1)OCc1cn(-c2cc3nc(C(=O)O)c(=O)[nH]c3cc2[N+](=O)[O-])cn1 ... 270 to 272 °C (dec.)
Cl.O=C(O)c1nc2cc(Cn3ccnc3)c([N+](=O)[O-])cc2[nH]c1=O ... > 300 °C
O=C(NCc1ccn(-c2cc3nc(C(=O)O)c(=O)[nH]c3cc2C(F)(F)F)c1)Nc1ccc(C(=O)O)cc1 ... 234 to 236 °C (dec.)
O=C(O)c1nc2cc(-n3ccc(=O)cc3)c(C(F)(F)F)cc2[nH]c1=O ... 300 °C

Now for another entry.
So, `Nc1cc2[nH]c(=O)c(C(=O)O)nc2cc1F` ? Its melting point was > 300 °C

----------
Quantity kind: melting point

O=C(Nc1cccc(Br)c1)OCc1cn(-c2cc3nc(C(=O)O)c(=O)[nH]c3cc2[N+](=O)[O-])ccc1=O ... 199 to 201 °C (dec.)
O=C(Nc1ccccc1)OCc1cn(-c2cc3nc(C(=O)O)c(=O)[nH]c3cc2C(F)(F)F)cn1 ... 193 to 195 °C (dec.)
NC(=O)c1nc2cc(-n3ccc(=O)cc3)c([N+](=O)[O-])cc2[nH]c1=O ... > 300 °C
CCOC(=O)c1ccc(NC(=O)OCc2cn(-c3cc4nc(C(=O)O)c(=O)[nH]c4cc3[N+](=O)[O-])cn2)cc1 ... 207 to 209 °C (dec.)

So, `CN(C)Cc1cc2nc(C(=O)O)c(=O)[nH]c2cc1[N+](=O)[O-]` ? Its melting point was > 300 °C

----------
The entries below are paired with their reported melting point.
Structures can show the parent of a compound that is named as a salt.

Take a look at these entries with their results.
O=C(Nc1ccc(C(=O)O)cc1)OCc1cn(-c2cc3nc(C(=O)O)c(=O)[nH]c3cc2[N+](=O)[O-])ccc1=O [Example 307] ... 231 to 233 °C (dec.)
O=C(NCc1cn(-c2cc3nc(C(=O)O)c(=O)[nH]c3cc2[N+](=O)[O-])cn1)Nc1ccccc1F [Example 118] ... 300 °C
O=C(O)c1nc2cc(CN3CCOCC3)c([N+](=O)[O-])cc2[nH]c1=O (as salt: hydrochloride) [Example 160] ... 209 to 211 °C (dec.)
Nc1cc2nc(C(=O)O)c(=O)[nH]c2cc1C(F)(F)F [Example 164] ... 218 to 220 °C (dec.)
O=C(O)c1nc2cc(-n3ccnc3)c(C(F)(F)F)cc2[nH]c1=O [Example 168] ... 232 to 234 °C (dec.)
O=C(NCc1cn(-c2cc3nc(C(=O)O)c(=O)[nH]c3cc2C(F)(F)F)cn1)Nc1ccc(C(=O)O)cc1 (as salt: salt) [Example 207] ... 255 °C (dec.)

So, O=C(Nc1cccc(C(=O)O)c1)OCc1cn(-c2cc3nc(C(=O)O)c(=O)[nH]c3cc2[N+](=O)[O-])ccc1=O [Example 125] ? Its melting point was 250 to 252 °C (dec.)

So, O=C(Nc1ccccc1F)OCc1cn(-c2cc3nc(C(=O)O)c(=O)[nH]c3cc2[N+](=O)[O-])cn1 [Example 96] ? Its melting point was 251 to 253 °C (dec.)
